- ASSAY PROCEDURE: soluble on expression in E. coli; label from the status in PepcDB or PDB records
QUANTITY MEASURED: soluble on expression in E. coli

[[record]]
biopolymer_sequence = "MTTPSPQEISTVTLNSLSKEERKKAILALQTKKNEIKLVIDEHQKKLAEFRQSIPDGCCEMFENEKKIRLKHSSTAELLPHLQKVGSSSVDKEKMINNIRQRVEVQVADQETFKSIEERNELLRRENENLKKEVNTVAAELLQEFESYE"
result = "not soluble"

[[record]]
biopolymer_sequence = "MGSDKIHHHHHHMMPQTSLHQHVMNWAISVPGDKTLKRDIFNNIWITASQRYEYQHLTFMAQGIVELLNTEIGGVDVSIPINLFLQSTEATKYDAEMLDFAQRIVTVKDRQHIALLSENILQKMPYQPDSTSVHTTATQAFQAGQGVCQDHAHVLIAMCRALQLPARYVSGYLFDQNSPHLASHAWAEVFLDNQWYCFDVSNQLFTPKHHIYLAVGRDYLDVAPIRGVREKGGTENMMSVVQVLAC"
result = "not soluble"

[[record]]
biopolymer_sequence = "MAHRAFIQVIITGTQVFGKAFAEAYRQAASQSVKQGATNASRRGTGKGEYGGITLDESCKILNIEESKGDLNMDKINNRFNYLFEVNDKEKGGSFYLQSKVYRAAERLKWELAQREKNAKAKAGDASTAKPPPNSTNSSGADNSASSNQ"
result = "not soluble"

[[record]]
biopolymer_sequence = "MGSDKIHHHHHHMDPRSEVLLRQAELFQGPLLIAGAPADDLLGQLPQAQAWTWHAGDQAMLESRFAGRSHYGVEAPEAAFDSAVLFLPKSRELAAYLLNALASRLAGRELYLVGEKRGGIEGAAKQLQAFGKPRKLDSARHCQLWQVTIDQAPQAKPLESLAERFELALEDGPLQVVSLPGVFSHGRLDRGTALLLKHLDGLPGGHMLDFGCGAGVLGATLKRRYPQSRVTLLDVDAFAVAASRLTLAANGLEGEVISGDGIDAAPTELSLILSNPPFHTGVHTNYQASENLLKKSAVHLRKGGEMRLVANSFLRYQPLIEGALGNCQVRDEADGFRIYQATRG"
result = "not soluble"

[[record]]
biopolymer_sequence = "MASMTGGNNMGRGSMGAMDQEIGTVTDTKMDPRDFLQLLKINAEKAEKNLPLDQKRAGMEALCERFPRAEGVELTLTDLGGVPCIRQATDGAGAAHILYFHGGGYISGSPSTHLVLTTQLAKQSSATLWSLDYRLAPENPFPAAVDDCVAAYRALLKTAGSADRIIIAGDSAGGGLTTASMLKAKEDGLPMPAGLVMLSPFVDLTLSRWSNSNLADRDFLAEPDTLGEMSELYVGGEDRKNPLISPVYADLSGLPEMLIHVGSEEALLSDSTTLAERAGAAGVSVELKIWPDMPHVFQMYGKFVNAADISIKEICHWISARISKLAAALEHHHHHH"
result = "soluble"

[[record]]
biopolymer_sequence = "MEICADELKKVLNTVVNKHKDLKTHGFTLESCRSMIALMDTDGSGKLNLQEFHHLWNKIKAWQKIFKHYDTDQSGTINSYEMRNAVNDAGFHLNNQLYDIITMRYADKHMNIDFDSFICCFVRLEGMFRAFHAFDKDGDGIIKLNVLEWLQLTMYA"
result = "soluble"


* * *

- ASSAY PROCEDURE: soluble on expression in E. coli; label from the status in PepcDB or PDB records
QUANTITY MEASURED: soluble on expression in E. coli

[[record]]
biopolymer_sequence = "MGSDKIHHHHHHMKMNIPVIFQFLKDLSANNNREWFNEHRSEYEVARAEFDNFLATVIARISLFDETIRGIQPKDCTYRIYRDTRFSADKTPYKIHFGGYINAKGKKSDHCGYYVHLQPDGSMLAGGSLCLPPNVLKAVRQAIYDNVEEYISIVEDPEFKKYFPVVGEDFMKTAPKGFPKDFKYIDYLKCRQFVCSYLVPDDFFTRADMMEQIEKAFRQFKRFADFINYTIDDFE"
result = "not soluble"

[[record]]
biopolymer_sequence = "GSHMSQPRPLLSPPETEEQLLAQAQQLSGYTLGELAALVGLVTPENLKRDKGWIGVLLEIWLGASAGSKPEQDFAALGVELKTIPVDSLGRPLETTFVCVAPLTGNSGVTWETSHVRHKLKRVLWIPVEGERSIPLAQRRVGSPLLWSPNEEEDRQLREDWEELMDMIVLGQVERITARHGEYLQIRPKAANAKALTEAIGARGERILTLPRGFYLKKNFTSALLARHFLIQ"
result = "soluble"

[[record]]
biopolymer_sequence = "MMVYQRPVFTVISLLRIRNREEAKLVLIGAVVVYRNFVEQTLADAQKNWVKSLVLYDDPGDAVTGILTWFSRYACLHGPRLGPLDTIAVNDNPLYIYCPRRKLEEYAKERIVSFHSEIGSVVCSMSPFDAGVTREKVRYGHNLISPGSCLLPDALEAYVAFLPSKSFLKLPYSVYEVHNDRYVHKFFALLPGSRFHFEVVAVGLAYPAAKKRPSGLGILRCCFTGKTNTCLLEHHHHHH"
result = "soluble"

[[record]]
biopolymer_sequence = "MGHHHHHHSHMKMGYEEVSQKFTSIRRVRGDNYCALRATLFQAMSQAVGLPPWLQDPELMLLPEKLISKYNWIKQWKLGLKFDGKNEDLVDKIKESLTLLRKKWAGLAEMRTAEARQIACDELFTNEAEEYSLYEAVKFLMLNRAIELYNDKEKGKEVPFFSVLLFARDTSNDPGQLLRNHLNQVGHTGGLEQVEMFLLAYAVRHTIQVYRLSKYNTEEFITVYPTDPPKDWPVVTLIAEDDRHYNIPVRVCEETSL"
result = "soluble"

[[record]]
biopolymer_sequence = "MTDAGSSFCPECGDPVDSVGGDGATRREQSLCDSCYFAAFDLVDAPDTIEVMVCARCGAVHRGNRWVDIGADDYVDVAVAETTEALGVHLEAEDVDWEVRPEKLDDNTVRMHATFTGVVRDTHRTEQVAVTVKVSRQTCQRCGRIAGESYASTVQVRAVGRDPTSEETDRAAELAHRIVADMEATGDREAFVTEIGDAESGTDIKLSTTKIGLKLARKLVEEFGGDFEDHETLITEDDDGNEVYRVTYAVRLPEFVPGDVVDIAADDGGPVLVQSNHGNLKGVRVTTGEPYEASFEDGDSPDARKLGAVADATEATVVTVEDDAAIQILDPDTYEAQTVARPDYVDPDASTVPALKSRAGLHVLPDALEHHHHHH"
result = "soluble"

[[record]]
biopolymer_sequence = "MKIAIIGAGIGGLTAGALLLEKGHDVSIFERQSNISEVGAGIGIGDNVIKKLGKHDLAKGIKNAGQNLSAMNVLDDKGNILSAVKLKEATLNVTLARQTLIELIQSYVNPQCIYTDHDVIKVENVEQHTMVHFSNHASQSFDLCIGSDGLHSVVRQAIHQNAKILYQGYTCFRGLVDDADLHNIDIASEYWGKRGRVGIVPLINNQAYWFITINASEKDPKYQTFEKPHLQAYFNNYPEPVRQILDKQSETGIQKHDLYDMKPLKSFVNQRILLLGDAAHATTPNMGQGAGQAMEDAIVLVNCLAEYDIEKALKRYDKLRVKHTAKVIKRSRKIGKIAQKDNKLVISLRNGVMKRTPNRLLSGQTKFLYKAKHKLEHHHHHH"
result = "not soluble"

[[record]]
biopolymer_sequence = "MAVKGLGEVDQKYDGSKLRIGILHARWNRKIIDALVAGAVKRLQEFGVKEENIIIETVPGSFELPYGSKLFVEKQKRLGKPLDAIIPIGVLIKGSTMHFEYICDSTTHQLMKLNFELGIPVIFGVLTCLTDEQAEARAGLIEGKMHNHGEDWGAAAVEMATKFN"
result = "soluble"

[[record]]
biopolymer_sequence = "MAQTQLSYKNKTYQISYEILGDLSLPQILILHGWGADKKLMKQSFCPFLKDFCQIYMDLAGFGNSSVEEILNTQDYANITELFLKQKKLNVCFFMGHSFGGKVSTLLAKEKDTLILLSSAGILAKKSLKVRFKIRIFKILKLFGLGKFYRYFASKDGANLSPIMYETFKKVVDEDFSEIFAKQKAKSLIFWGKSDEATPLYCGEKMHQFLKNSTFYPLEGDHFFFLKHSAFIAQKIKEI"
result = "not soluble"

[[record]]
biopolymer_sequence = "MAQWSTMSTADRDFVVRFPTGTSDPLSDAEIQQYREEIDRLDKEILAAVKRRTEISRAIGKTRMGSGGTRLVHTREVAIINQFREEIGEEGPALAGILLRMGRGRLGEAR"
result = "not soluble"

[[record]]
biopolymer_sequence = "MAHHHHHHSLSLKGFVKVERRMADRTIKMLQSRGYFDSDYEIRHEGDYVLIPVKDGFTGPVVVKDAEKKPKVIPASGSFDIIGTIAITKKDDVEFAKEILKTHKNIKSVYLDKGVKGKERIRDLVLLAGIDSTVALYRENGCIFKIDVSKSYFSPRLATERRRLVDSILDGEFIVDMFAGSGPISIEVAKKRRVKIISIDINCAAIESLQESMRLNSLLGTITPICGDARQLIKDIHDADRIIMNHPTDAFSFLPCALEALKYGGHINYYEILNKDDVTKRLADFNFMRLKVFSYHRVHSYSKLSDLISFDLIREGEG"
result = "soluble"

[[record]]
biopolymer_sequence = "MGSDKIHHHHHHMKNNRINIHSQQYMETMARLMSEALESPEGMRALAAAIAAPIEQEIKRKEISSLLLTRHTLPKGERPIYQKKPTVKAHWISKDGEAQEQELGKDEVEFPTNRIHSNPMVDISVLKHGNIGTLMDIQTGAASSIRKEMDSRTITVISSAIPAANTVEVTGDKVTEEALNEAISIIEDLELSVKYIVLRGRRFNDMRSWNLDPQTKLELRQKGVIKNYGTGGILLTAAMPMDEIIIVPDEEVGKLPVRENLKTESIDQKTRFKTGWLVWSEIGQGITRPDILAKVKLVP"
result = "not soluble"


Sourced from the DeepSol protein solubility set
